# target-or-test-system: SARS-CoV-2 spike, variant N501Y (B.1.1.7, British) (on virus or pseudovirus) (SARS-CoV-2, UniProt P0DTC2 14-1273)
# protocol: cell-based or functional assay
Consider the following binders and their measured IC50 (ng/ml), pseudovirus neutralisation, British B1.1.7 readings.
readout: IC50 (ng/ml), pseudovirus neutralisation, British B1.1.7

[
  {
    "binder": "9-2H7-D7 (mouse) (antibody, V domains shown) VH: EVQLQQSGPELVKPGASVTISCKTSGYTFTEYTMYWVKQSHGKSLEWIGGINPYIGDTSYNQNFKGKATLTVDKSSSTAYMELRSLTSEDSAVYYCARDGYPDYSAMDFWGQGTSVTVSS VL: DIVMSQSPSSLAVSVGEKVTMNCKSSQNLLYSSNQKNYLAWYQQKPGQSPKLLIYWASTRESGVPDRFTGSGSGTDFTLTISSVKAEDLAVYSCQQYYTYPWTFGGGTKLEIK",
    "observed-value": "40 ng/mL"
  },
  {
    "binder": "9-7A4-C2 (mouse) (antibody, V domains shown) VH: EVQLQQSGPELVKPGASVKISCKTSGYTFTEYTMYWVKQSHGKSLEWIGGINPNNGDSSYIQKFKGKATLTVDESSSTAYMELRSLTSEDSAVYYCARDGYPNSYAMDYWGQGTSVTVSS VL: DIVMSQSPSSLAVSVGDKVTMSCKSSQSLLYSTNQKNYLAWYQQKPGQSPKLLIYWASTRESGVPDRFTGSGSGTDFTLTIGSVRPEDLAVYYCQQYYSYPWTFGGGTKLEIK",
    "observed-value": "18 ng/mL"
  },
  {
    "binder": "9-8F2-B11 (mouse) (antibody, V domains shown) VH: EVQLQQSGAELVKPGASVKLSCTASGFNIKETYVHWVKQRPEQGLEWIGRIDPAIGDSEYDPKFQGKATVTADTSSNTAYLQLSRLTSEDTAVYYCARTWGPFFDFWGQGTTLTVSS VL: DVVMTQTPLSLPVSLGDQASISCRSSQSLVHSHGNTFLHWYLQKPGQSPKVLIYKVSSRFSGVPDRFSGSGAGTDFTLKISRVEAEDLGVYFCSQSTHVPYTFGGGTKLEIK",
    "observed-value": "7.7 ng/mL"
  },
  {
    "binder": "humanised 9-8F2-B11 (VH3VL3) (antibody, V domains shown, also called 9-8F2-B11 humanised) VH: QVQLVQSGAEVKKPGASVKVSCKASGFNIKETYVHWVRQAPGQGLEWMGRIDPAIGDSEYAQKFQGRVTMTRDTSISTAYMELSRLRSDDTAVYYCARTWGPFFDFWGQGTLVTVSS VL: DIVMTQTPLSLSVTPGQPASISCKSSQSLLHSHGNTFLHWYLQKPGQSPQVLIYKVSSRFSGVPDRFSGSGSGTDFTLKISRVEAEDVGVYYCSQSTHVPYTFGQGTKLEIK",
    "observed-value": "11 ng/mL"
  }
]
